So I've got a bunch of compounds here, and I need their response vs control in vivo at 200 mg/kg values.
# Test system: phenol red retention in circulation
# assay details: Uricosuric activity by phenol red retention test in mice
# Type: in vivo, male mice
# assay context: Mus musculus, po, 1 h; mice; p.o. 200 mg/kg, 30 min before 75 mg/kg phenol red; blood 60 min after phenol red; read-out: phenol red retention, percentage by comparison with the control group, P.O. (200 mg/kg)
Please state the value followed by its unit.

Determine from records and report response vs control in vivo at 200 mg/kg for CCc1oc2ccccc2c1C(=O)c1cc(C)c(OCc2nnn[nH]2)cc1C
232%

Determine from records and report response vs control in vivo at 200 mg/kg for CCc1sc2ccccc2c1C(=O)c1ccc(OCC(=O)O)cc1
162%

Determine from records and report response vs control in vivo at 200 mg/kg for CCc1oc2ccccc2c1C(=O)c1ccc(OCC(=O)NO)cc1
129%

Determine from records and report response vs control in vivo at 200 mg/kg for CCc1oc2ccccc2c1C(=O)c1ccc(OCC(=O)NCC(=O)OC)cc1
153%

Determine from records and report response vs control in vivo at 200 mg/kg for CCc1oc2ccccc2c1C(=O)c1cc(C)c(OCC(=O)O)c(C)c1
394%

Determine from records and report response vs control in vivo at 200 mg/kg for CCc1oc2ccccc2c1C(=O)c1ccc(O)c(C)c1C
112%

Determine from records and report response vs control in vivo at 200 mg/kg for CCc1oc2ccccc2c1C(=O)c1ccc(OCC(=O)NCC(N)=O)cc1
132%

Determine from records and report response vs control in vivo at 200 mg/kg for CCc1oc2ccccc2c1C(=O)c1ccc(OCc2nnn[nH]2)c(C)c1
218%

Determine from records and report response vs control in vivo at 200 mg/kg for CCc1oc2ccccc2c1C(=O)c1cc(C)c(OCC(=O)OC)cc1C
254%
